test: Drug uptake in rat liver at 10 mg/kg, po at 6 hrs; assay type: ADME, organism-based; set-up: dose 10 mg/kg, route oral; conditions: read-out: Drug uptake
Returns the class for an entry based on its concentration at 6 h. Class ranges: 0 (below 200 ng/g), 1 (200 ng/g to below 6000 ng/g), 2 (6000 ng/g or more)

Please review the following examples before continuing.
- Smiles data: "Cc1nc(N[C@H](C)c2ccccc2)nc(N[C@@H]2C[C@H](CO)[C@@H](O)[C@H]2O)c1-c1nc2cnccc2s1"
  Class: 0
- Smiles data: "Cc1nc(N[C@H](C)c2ccc(OC(F)(F)F)cc2)nc(N[C@@H]2C[C@H](CO)[C@@H](O)[C@H]2O)c1-c1nc2c(C(C)C)nccc2s1"
  Class: 2
- Smiles data: "Cc1nc(N[C@H](C)c2ccc(OC(F)(F)F)cc2)nc(N[C@@H]2C[C@H](CO)[C@@H](O)[C@H]2O)c1-c1nc2c(C3CCC3)nccc2s1"
  Class: 1

Incoming: Sort "CCOCCNc1nc(C)c(-c2nc3cnccc3s2)c(N[C@@H]2C[C@H](CO)[C@@H](O)[C@H]2O)n1" into one of the categories.
Outgoing: 1

Incoming: Param item: "Cc1nc(NCC2CC2)nc(N[C@@H]2C[C@H](CO)[C@@H](O)[C@H]2O)c1-c1nc2cnccc2s1"
Outgoing: 0

Incoming: Param item: "Cc1nc(N[C@H](C)c2ccc(OC(F)(F)F)cc2)nc(N[C@@H]2C[C@H](CO)[C@@H](O)[C@H]2O)c1-c1nc2c(CCC#N)nccc2s1"
Outgoing: 0

Incoming: Param item: "Cc1nc(N[C@H](C)c2ccc(OC(F)(F)F)cc2)nc(N[C@@H]2C[C@H](CO)[C@@H](O)[C@H]2O)c1-c1nc2c(C3CC3)nccc2s1.Cl"
Outgoing: 2

Incoming: Param item: "CCc1nc(C)cc2sc(-c3c(C)nc(N[C@H](C)c4ccc(OC(F)(F)F)cc4)nc3N[C@@H]3C[C@H](CO)[C@@H](O)[C@H]3O)nc12"
Outgoing: 1

----------
test: Clearance in dog at 3 mg/kg, po; format: ADME, organism-based, Canis lupus familiaris; design: dose 3 mg/kg, route oral; settings: in vivo
Entries annotated with measured CL/F
Write the value in mL/min/kg as a bare number.

- Smiles data: "Cc1nc(N[C@H](C)c2ccc(OC(F)(F)F)cc2)nc(N[C@@H]2C[C@H](CO)[C@@H](O)[C@H]2O)c1-c1nc2c(C3CC3)nccc2s1.Cl"
  CL/F [mL/min/kg]: 4.2

Incoming: Requested field: CL/F. Item: "Cc1nc(N[C@H](C)c2ccc(OC(F)(F)F)cc2)nc(N[C@@H]2C[C@H](CO)[C@@H](O)[C@H]2O)c1-c1nc2c(C)nccc2s1.Cl"
Outgoing: 9.8

----------
Entries annotated with measured bioavailability
test: Oral bioavailability in dog at 3 mg/kg; assay type: ADME, organism-based, Canis lupus familiaris; settings: in vivo
Write the value in % as a bare number.

- Smiles data: "Cc1nc(N[C@H](C)c2ccc(OC(F)(F)F)cc2)nc(N[C@@H]2C[C@H](CO)[C@@H](O)[C@H]2O)c1-c1nc2c(C3CC3)nccc2s1.Cl"
  bioavailability [%]: 32

Incoming: Requested field: bioavailability. Item: "Cc1nc(N[C@H](C)c2ccc(OC(F)(F)F)cc2)nc(N[C@@H]2C[C@H](CO)[C@@H](O)[C@H]2O)c1-c1nc2c(C)nccc2s1.Cl"
Outgoing: 31
